# Test system: RS4;11 cells
# test.name: RS4;11 Cell Viability Assay (CellTiter Glo);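 further: RS4,11 acute lymphoblastic leukemia cells, viability as percent of untreated control cells, EC50 for loss of viable cells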
# Format: cell-based
# particulars: Homo sapiens, RS4-11, 48 h, 50,000 cells per well, 10% human serum
property.label: EC50 (nM)

| compound | property.label | measured |
| --- | --- | --- |
| [2H]C1([2H])N(CC2=C(c3ccc(Cl)cc3)CC(C)(C)CC2)C([2H])([2H])C([2H])([2H])N(c2ccc(C(=O)NS(=O)(=O)c3ccc(NCC4CCOCC4)c([N+](=O)[O-])c3)c(Oc3cnc4[nH]ccc4c3)c2)C1([2H])[2H] | EC50 | 8 |
| COCC1(C)CCC(CN2CCN(c3ccc(C(=O)NS(=O)(=O)c4ccc(NCC5CCOCC5)c([N+](=O)[O-])c4)c(Oc4cnc5[nH]ccc5c4)c3)CC2)=C(c2ccc(Cl)cc2)C1 (centres unmarked) | EC50 | 5.06 |
